Reference source: ChEMBL document CHEMBL4513216

assay: Toxicity liver stage against HepG2, at 10uM; format: cell-based; parameters: test concentration 10 uM, cell line HepG2-A16-CD81EGFP; conditions: human, HepG2-A16-CD81EGFP cells; read-out: INHIBITION
observable: cytotoxicity at 10 µM (%)
The figure you give is taken to be in %; do not add the unit.

                                   compound             observable  recorded_result
0  CN(C(=O)c1ccc(NC(=O)c2cc[nH]n2)cc1)C1CCCCC1  cytotoxicity at 10 µM            -2.98
1        COCC(=O)N1CCc2nc(C)nc(NC(C)C)c2CC1  cytotoxicity at 10 µM             -102
2  CN(CC1CN(Cc2cn3ccsc3n2)CCO1)c1cccnn1 (stereo unspecified)  cytotoxicity at 10 µM             4.55
3  Cc1ccn2ncc(C(=O)N3CCCC(n4cccn4)C3)c2n1 (stereo unspecified)  cytotoxicity at 10 µM            -24.3
4  O=C(C[C@@H]1COC[C@H]2CN(C3CCOCC3)C[C@@H]12)Nc1cnccn1  cytotoxicity at 10 µM               12
5   O=C(c1coc(-c2ccccc2)n1)N1CCS(=O)(=O)CC1  cytotoxicity at 10 µM             11.4
6  O=C(NC1CC1)c1nc(Cn2c(C(F)F)nc3ccccc32)no1  cytotoxicity at 10 µM             7.59
7  Cc1noc(C)c1CN1CC[C@H]2OCC[C@@]2(C(=O)N(C)C)C1  cytotoxicity at 10 µM            -76.5
8         CC(C)OCCCN(Cc1ccncc1)Cc1cccc(F)c1  cytotoxicity at 10 µM            -15.6
9      O=C(O)CCN(Cc1ccc(F)c(F)c1)C(=O)C1CC1  cytotoxicity at 10 µM             1.04

Kindly consider the entry below.
Exercise: Requested field: cytotoxicity at 10 µM. Item: CC(Cn1cccn1)NC(=O)NCCc1ccsc1 (stereo unspecified)
Solution: -14.8
